Molecular target: dopamine D4 receptors in cloned human dopamine receptor subtype 4.2 membranes (Homo sapiens, UniProt P21917, DEL265-296)
Sequence (P21917 with tags, fused parts or gaps DEL265-296): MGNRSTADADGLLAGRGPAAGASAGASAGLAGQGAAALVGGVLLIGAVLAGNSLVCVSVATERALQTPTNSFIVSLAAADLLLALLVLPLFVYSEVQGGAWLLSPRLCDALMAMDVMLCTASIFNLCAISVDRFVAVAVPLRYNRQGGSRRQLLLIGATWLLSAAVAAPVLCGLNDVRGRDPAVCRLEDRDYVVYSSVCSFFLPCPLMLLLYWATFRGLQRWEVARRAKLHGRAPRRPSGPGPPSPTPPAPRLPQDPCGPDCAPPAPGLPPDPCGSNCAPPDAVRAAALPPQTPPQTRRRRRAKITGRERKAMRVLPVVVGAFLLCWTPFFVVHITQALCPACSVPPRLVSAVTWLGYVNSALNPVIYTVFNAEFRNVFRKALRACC
Experiment: 3H-YM-09151-2 binding
Details: 3H-YM-09151-2, cloned human D4.2 membranes
Description: By this method the inhibition by drugs of the binding of the dopamine D4 antagonist ^3H-YM-09151-2 to dopamine D4 receptors in cloned human dopamine receptor subtype 4.2 membranes is determined in vitro. Accordingly, this is a test for affinity for dopamine D4 receptors. The test is performed using a preparation of cloned dopamine D4 cell membranes CRM-016®, Dupharma A/S, Denmark, in accordance with the product specifications.
Metric: pIC50
Answers are plain numbers, as −log10 of the molar value.

Observe how each entry below is paired with its result.
# Compound, pIC50
records = [
    ("O=C(CCCN1CCN(c2ccc3c(c2)OCO3)CC1)C1CNc2ccccc21 (centres unmarked)", 8.37),
    ("c1ccc2c(c1)CCC2CCN1CCN(c2ccc3c(c2)OCO3)CC1 (centres unmarked)", 8.25),
    ("c1ccc2c(c1)CCC2CN1CCN(c2ccc3c(c2)OCO3)CC1 (centres unmarked)", 8.06),
]

Record pIC50 for all entries; do not skip any.
1. c1ccc2c(c1)CC(CN1CCN(c3ccc4c(c3)OCO4)CC1)C2
2. CC(=O)N1CC(CCN2CCN(c3ccc4c(c3)OCO4)CC2)c2ccccc21 (centres unmarked)

Response:
1. 8.74
2. 8.43
